System: Pseudomonas aeruginosa ATCC 27853
Experiment: MBEC assay, biofilm elimination, MBEC bioFILM PA panel
Assay type: cell-based
Conditions: with 0.1% w/v compound 9 in PBS
Please go through the items and note down their MBEC-Biofilm Elimination, With 0.1% w/v compound 9 in PBS.

The recorded MBEC-Biofilm Elimination, With 0.1% w/v compound 9 in PBS for entry CC(C)(O/N=C(\C(=O)N[C@@H]1C(=O)N2C(C(=O)[O-])=C(C[n+]3ccccc3)CS[C@H]12)c1csc(N)n1)C(=O)O [CAZ, ceftazidime] equals >4

The recorded MBEC-Biofilm Elimination, With 0.1% w/v compound 9 in PBS for entry C[C@H]1[C@H](NC(=O)/C(=N\OC(C)(C)C(=O)O)c2csc(N)n2)C(=O)N1S(=O)(=O)O [AZT, astreonam] equals >4

The recorded MBEC-Biofilm Elimination, With 0.1% w/v compound 9 in PBS for entry C[C@@H](O)[C@H]1C(=O)N2C(C(=O)O)=C(S[C@@H]3CN[C@H](C(=O)N(C)C)C3)[C@H](C)[C@H]12 [MER, meropenem] equals >1

The recorded MBEC-Biofilm Elimination, With 0.1% w/v compound 9 in PBS for entry NC[C@H]1O[C@H](O[C@H]2[C@H](O)[C@@H](O[C@H]3O[C@H](CO)[C@@H](O)[C@H](N)[C@H]3O)[C@H](N)C[C@@H]2N)[C@H](N)C[C@@H]1O [TO, tobramycin] equals >2

The recorded MBEC-Biofilm Elimination, With 0.1% w/v compound 9 in PBS for entry O=C(N[C@H](CO)[C@H](O)c1ccc([N+](=O)[O-])cc1)C(Cl)Cl [C, chloramphenicol] equals >4

The recorded MBEC-Biofilm Elimination, With 0.1% w/v compound 9 in PBS for entry NCC[C@H](O)C(=O)N[C@@H]1C[C@H](N)[C@@H](O[C@H]2O[C@H](CN)[C@@H](O)[C@H](O)[C@H]2O)[C@H](O)[C@H]1O[C@H]1O[C@H](CO)[C@@H](O)[C@H](N)[C@H]1O [AK, amikacin] equals >8
